- METHOD SUMMARY: Fluorometric competition titration with EGTA, Zn(II) complex stability constant
- Assay type: binding
- MEASUREMENT SETUP: pH 7.0, ionic background 0.1 M KCl, 25° C., liposomes; read-out: apparent dissociation constant Kd for Zn(II)
MEASURED PARAMETER: Kd

input: Look at this molecule and give its reported Kd. COc1ccc2c(c1)C(C)(C)c1nc(-c3cccc(CN(Cc4ncccn4)Cc4ncccn4)n3)sc1-2 [probe 8]
output: 18.5 nM
